Biological target: ZFP SBS#995 (synthetic, UniProt P08047)
Sequence (P08047 other isoform, or with tags, fused parts or gaps): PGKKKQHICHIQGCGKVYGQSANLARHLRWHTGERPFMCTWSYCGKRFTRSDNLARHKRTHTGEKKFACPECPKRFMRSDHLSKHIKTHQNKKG
Experiment: EMSA
Conditions: tags: MBP fusion
pKd: −log10 of the molar value.
measure.name: pKd

binder	measure.name	value.reported
GGGGAGGAA (dsDNA) DNA 1: GGGGAGGAA DNA 2: TTCCTCCCC	pKd	10.10
